Data origin: PubChem BioAssay (NCI)

- Test system: SK-MEL-2 melanoma
- assayName: NCI-60 one-dose screen, 48 h (100 = growth as untreated, 0 = no growth, -100 = all killed)
- testParameters: 10 µM unless noted
Compounds without any hit were thinned out: in the full panel of roughly 83,000, 20% have a hit.
Where growth equals or exceeds 90%, the correct label is yes; where it does not, the label is no.

Use these answered entries as a reference point.
O=C(O)c1cc([N+](=O)[O-])cc([N+](=O)[O-])c1
no
COC(=O)C1=CO[C@@H](C)[C@@H]2CN3CCc4c([nH]c5cc(OC)ccc45)[C@@H]3C[C@H]12
yes
CC(=O)OC1CC2(O)C(CCC3(C)C(c4ccc(=O)oc4)CCC32O)C2(C)CCC(OC3OC(CO)C(O)C(O)C3O)C=C12 (stereo not drawn)
no
CC1=CC(=Nc2ccc(N(CCCl)CCCl)cc2)C=C(C)C1=O
no
C[C@@H]1C/C=C\C(=O)O[C@H](/C=C/C#C/C=C/C(C)(C)[C@@H](O)c2cccc(O)c2Br)[C@@H](C)/C=C/[C@H](C)C[C@H](OC(N)=O)C1
no

Now consider the entry below.
**Q:** Decide: is the reported value of growth for "CC[C@H](CC[C@@H](C)[C@H]1CC[C@H]2[C@@H]3CC[C@H]4C[C@]5(CC[C@]4(C)[C@H]3CC[C@]12C)OO[C@](C)(C(F)(F)F)O5)C(C)C" equal to or greater than 90%?
**A:** yes

* * *

- Tested on: NCI-H322M lung
- assayName: NCI-60 one-dose screen, 48 h
- testParameters: 10 µM unless noted
The panel holds about 83,000 compounds, 20% with a hit somewhere; the sample as a whole holds those more often. Activity calls are given as the source filed them. Rule for the calls: active = growth percent below 10; inactive = the rest.
Respond using exactly one of the listed classes: active, inactive

CC1=C2[C@H]3OC(=O)[C@@H](C)[C@@H]3CC[C@@]2(C)C=CC1=O
inactive

**Q:** Please indicate how the test categorized "Cc1ccc(N2CCN(CCC#N)CC2)cc1" .
**A:** inactive

**Q:** Please indicate how the test categorized "COc1ccc(O)c2c(=O)c3c(OC)cc4c(c3oc12)[C@@H]1C=CO[C@@H]1O4" .
**A:** inactive

**Q:** Please indicate how the test categorized "CCN1C(=O)CC(=O)N(CC)C1=S" .
**A:** inactive

* * *

- Tested on: HCT-15 colon
- assayName: NCI-60 one-dose screen, 48 h (100 = growth as untreated, 0 = no growth, -100 = all killed)
- testParameters: 10 µM unless noted
Compounds without any hit were thinned out: in the full panel of roughly 83,000, 20% have a hit.
measuredParameter: growth (%)
Give the number; % is assumed, so skip it.

CC[C@H](C)[C@H](NC(=O)[C@H]1CCCCN1C)C(=O)N(C)[C@H](C[C@@H](OC(C)=O)c1nc(C(=O)N[C@@H](Cc2ccccc2)C[C@H](C)C(=O)O)cs1)C(C)C
9.59
Cc1c(C)c(N)c(C)c(C)c1N
34.8
O=[N+]([O-])c1cc(Br)c(O)c(Br)c1
100

**Q:** Any idea what growth was measured for "COC(=O)[C@@H](C)C[C@H](Cc1ccccc1)NC(=O)c1cccc([C@@H](C[C@H](C(C)C)N(C)C(=O)[C@@H](NC(=O)[C@H]2CCCCN2C)C2CC2)OC(C)=O)n1" ?
**A:** 8.07
